target-under-test: MKK4 (Homo sapiens, UniProt P45985)
Construct: S84/D399; host or cells: HEK-293
assay-notes: KINOMEscan competition binding assay, MKK4
condition-summary: residual percent of control binding (PoC) at 100 nM
quantity-measured: MKK4 [% Ctrl @ 100 nM

Answered cases to consult:
>  <compound>
CCCS(=O)(=O)Nc1ccc(F)c(C(=O)c2c[nH]c3ncc(-c4ccc(OCC(O)CO)cc4)cc23)c1F (stereo not drawn) [Example 31]

>  <quantity-measured>
MKK4 [% Ctrl @ 100 nM

>  <result>
+++ (PoC < 1)

$$$$
>  <compound>
C=Cc1ccc(-c2cnc3[nH]cc(C(=O)c4ccc(F)c(NS(=O)(=O)CCC)c4F)c3c2)cn1 [Example 163]

>  <quantity-measured>
MKK4 [% Ctrl @ 100 nM

>  <result>
+++ (PoC < 1)

$$$$
>  <compound>
CNc1ncc(-c2cnc3[nH]cc(C(=O)c4ccc(F)c(NS(=O)(=O)CCC(F)(F)F)c4F)c3c2)cn1 [Example 177]

>  <quantity-measured>
MKK4 [% Ctrl @ 100 nM

>  <result>
+++ (PoC < 1)

$$$$
>  <compound>
CCCS(=O)(=O)Nc1c(F)ccc(C(=O)c2c[nH]c3ncc(-c4ccc(C)nc4)cc23)c1F [Example 229]

>  <quantity-measured>
MKK4 [% Ctrl @ 100 nM

>  <result>
+++ (PoC < 1)

$$$$
>  <compound>
CCCS(=O)(=O)Nc1ccc(F)c(C(=O)c2c[nH]c3ncc(-c4ccc(OC(F)(F)F)cc4)cc23)c1F [Example 111]

>  <quantity-measured>
MKK4 [% Ctrl @ 100 nM

>  <result>
◯ (30 ≤ PoC)

$$$$
>  <compound>
CCCS(=O)(=O)Nc1ccc(F)c(C(=O)c2c[nH]c3ncc(-c4ccc(OC)cc4OC)cc23)c1F [Example 104]

>  <quantity-measured>
MKK4 [% Ctrl @ 100 nM

>  <result>
+ (3 ≤ PoC < 30)

$$$$
>  <compound>
CS(=O)(=O)Nc1c(F)ccc(C(=O)c2c[nH]c3ncc(-c4ccncc4)cc23)c1F [Example 234]

>  <quantity-measured>
MKK4 [% Ctrl @ 100 nM

>  <result>
+++ (PoC < 1)

$$$$
>  <compound>
CCCS(=O)(=O)Nc1cc(Cl)cc(C(=O)c2c[nH]c3ncc(-c4ccc(Cl)cc4)cc23)c1 [Example 16]

>  <quantity-measured>
MKK4 [% Ctrl @ 100 nM

>  <result>
◯ (30 ≤ PoC)

$$$$

Look at this compound and give its reported MKK4 [% Ctrl @ 100 nM. Cc1cc(F)ccc1-c1cnc2[nH]cc(C(=O)c3cccc(NS(=O)(=O)Cc4ccccc4)c3F)c2c1 [Example 126]
+ (3 ≤ PoC < 30)

Look at this compound and give its reported MKK4 [% Ctrl @ 100 nM. CCCS(=O)(=O)Nc1ccc(F)c(C(=O)c2c[nH]c3ncc(-c4ccc([N+](=O)[O-])cc4)cc23)c1F [Example 107]
+ (3 ≤ PoC < 30)

Look at this compound and give its reported MKK4 [% Ctrl @ 100 nM. CCCS(=O)(=O)Nc1ccc(F)c(C(=O)c2c[nH]c3ncc(-c4ccc(OCC5COC(C)(C)O5)cc4Cl)cc23)c1F (stereo not drawn) [Example 25]
+ (3 ≤ PoC < 30)

Look at this compound and give its reported MKK4 [% Ctrl @ 100 nM. CCCS(=O)(=O)Nc1ccc(F)c(C(=O)c2c[nH]c3ncc(-c4cccnn4)cc23)c1F [Example 48]
+ (3 ≤ PoC < 30)

Look at this compound and give its reported MKK4 [% Ctrl @ 100 nM. CCCS(=O)(=O)Nc1ccc(F)c(C(=O)c2c[nH]c3ncc(-c4ccnnc4)cc23)c1F [Example 49]
+++ (PoC < 1)

Look at this compound and give its reported MKK4 [% Ctrl @ 100 nM. CCCS(=O)(=O)Nc1c(F)ccc(C(=O)c2c[nH]c3ncc(-c4ccc(N(C)C)nc4)cc23)c1F [Example 161]
+++ (PoC < 1)

###

target-under-test: UniProtKB P45983
Sequence (P45983 whole entry): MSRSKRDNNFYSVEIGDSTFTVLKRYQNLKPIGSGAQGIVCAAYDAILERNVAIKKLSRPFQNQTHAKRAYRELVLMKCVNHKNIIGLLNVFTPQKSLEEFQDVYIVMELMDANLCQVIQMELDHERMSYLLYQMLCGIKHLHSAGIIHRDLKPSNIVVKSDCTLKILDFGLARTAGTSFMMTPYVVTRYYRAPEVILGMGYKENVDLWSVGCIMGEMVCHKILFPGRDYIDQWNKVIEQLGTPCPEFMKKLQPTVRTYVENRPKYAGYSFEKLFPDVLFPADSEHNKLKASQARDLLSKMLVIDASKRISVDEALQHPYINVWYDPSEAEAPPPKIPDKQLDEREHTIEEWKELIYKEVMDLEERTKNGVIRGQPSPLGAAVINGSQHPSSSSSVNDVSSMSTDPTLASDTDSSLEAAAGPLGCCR
assay-notes: 33PanQinase enzyme assay, JNK1
Type: biochemical
Design: purchased ProQinase GmbH, Freiburg, Germany (33PanQinase Assay Service)
condition-summary: ratio IC50(JNK1)/IC50(MKK4)
quantity-measured: Selectivity JNK1, IC50(off-target)/IC50(MKK4)

>  <molecule>
O=C(c1ccc(F)c(NS(=O)(=O)CCC(F)(F)F)c1F)c1c[nH]c2ncc(-c3cnc(C(F)(F)F)nc3)cc12 [Example 142]

>  <result>
++·+

$$$$

###

target-under-test: BRaf (Homo sapiens)
Construct: purchased ProQinase GmbH, Freiburg, Germany (33PanQinase Assay Service)
Sequence (P15056 whole entry, species assumed): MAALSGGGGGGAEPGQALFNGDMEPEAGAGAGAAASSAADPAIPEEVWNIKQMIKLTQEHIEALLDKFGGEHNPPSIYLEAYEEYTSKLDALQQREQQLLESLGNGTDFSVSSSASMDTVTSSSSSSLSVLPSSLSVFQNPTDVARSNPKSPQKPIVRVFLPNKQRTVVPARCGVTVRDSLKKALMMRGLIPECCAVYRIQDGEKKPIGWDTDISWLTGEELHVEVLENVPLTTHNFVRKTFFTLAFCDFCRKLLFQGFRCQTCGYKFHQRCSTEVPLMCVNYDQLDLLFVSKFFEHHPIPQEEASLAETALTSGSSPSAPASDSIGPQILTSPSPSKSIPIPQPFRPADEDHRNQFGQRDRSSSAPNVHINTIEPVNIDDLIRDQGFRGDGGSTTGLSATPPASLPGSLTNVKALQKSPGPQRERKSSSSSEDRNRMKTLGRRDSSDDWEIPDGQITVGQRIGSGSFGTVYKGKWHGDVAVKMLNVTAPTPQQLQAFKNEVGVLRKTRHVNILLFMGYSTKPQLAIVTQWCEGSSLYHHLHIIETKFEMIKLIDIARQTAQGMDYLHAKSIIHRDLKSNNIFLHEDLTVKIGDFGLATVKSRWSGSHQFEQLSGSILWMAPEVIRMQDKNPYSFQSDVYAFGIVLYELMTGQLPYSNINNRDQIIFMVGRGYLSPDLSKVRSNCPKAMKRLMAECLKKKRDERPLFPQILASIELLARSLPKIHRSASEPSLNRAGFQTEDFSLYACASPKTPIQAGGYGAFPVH
assay-notes: KINOMEscan competition binding assay, BRaf
condition-summary: ratio PoC (off-target)/PoC (MKK4)
quantity-measured: selectivity based on % Ctrl @100 nM vs. Braf

>  <compound>
CCCCS(=O)(=O)Nc1ccc(F)c(C(=O)c2c[nH]c3ncc(-c4ccc(OC)cc4Cl)cc23)c1F

>  <result>
++ (100 ≥ ratio > 10)

$$$$
>  <compound>
CCCS(=O)(=O)Nc1ccc(F)c(C(=O)c2c[nH]c3ncc(-c4ccc(OCC(O)CO)cc4Cl)cc23)c1F (stereo not shown)

>  <result>
++ (100 ≥ ratio > 10)

$$$$

###

target-under-test: MKK4 (Homo sapiens, UniProt P45985)
Construct: purchased ProQinase GmbH, Freiburg, Germany (33PanQinase Assay Service)
Sequence (P45985 1-399): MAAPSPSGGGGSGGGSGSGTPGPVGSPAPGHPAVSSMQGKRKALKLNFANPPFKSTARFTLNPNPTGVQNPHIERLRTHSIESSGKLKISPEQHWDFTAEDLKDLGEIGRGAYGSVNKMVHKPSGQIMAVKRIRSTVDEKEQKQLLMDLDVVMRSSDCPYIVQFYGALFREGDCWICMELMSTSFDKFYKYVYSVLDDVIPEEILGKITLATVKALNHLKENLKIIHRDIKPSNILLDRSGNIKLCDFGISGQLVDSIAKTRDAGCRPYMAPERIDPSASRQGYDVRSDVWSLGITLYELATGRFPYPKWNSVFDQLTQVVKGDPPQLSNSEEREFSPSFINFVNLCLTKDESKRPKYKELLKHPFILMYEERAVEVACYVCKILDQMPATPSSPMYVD
assay-notes: 33PanQinase enzyme assay, MKK4
Format: biochemical
condition-summary: assay 'IC50'; read-out: Potency MKK4 (IC50)
pIC50: −log10 of the molar value.
quantity-measured: pIC50

>  <smiles-data>
CCCS(=O)(=O)Nc1c(F)ccc(C(=O)c2c[nH]c3ncc(-c4cnc(NCCCOC)nc4)cc23)c1F

>  <result>
6.00 to 7.00

$$$$
>  <smiles-data>
O=C(c1c(F)ccc(NS(=O)(=O)CCC(F)(F)F)c1F)c1c[nH]c2ncc(-c3ccc(N4CCS(=O)(=O)CC4)nc3)cc12

>  <result>
> 7.00

$$$$
>  <smiles-data>
CCCS(=O)(=O)Nc1ccc(F)c(C(=O)c2c[nH]c3ncc(-c4cccc(OC)c4)cc23)c1F

>  <result>
6.00 to 7.00

$$$$
>  <smiles-data>
CCCS(=O)(=O)Nc1c(F)ccc(C(=O)c2c[nH]c3ncc(-c4ccc(C)nc4)cc23)c1F

>  <result>
> 7.00

$$$$
>  <smiles-data>
Cc1cnccc1-c1cnc2[nH]cc(C(=O)c3ccc(F)c(NS(=O)(=O)CCC(F)(F)F)c3F)c2c1

>  <result>
> 7.00

$$$$

Look at this compound and give its reported pIC50. CCCS(=O)(=O)Nc1ccc(F)c(C(=O)c2c[nH]c3ncc(-c4ccc(P(C)(C)=O)cc4)cc23)c1F
6.00 to 7.00

Look at this compound and give its reported pIC50. O=C(c1cccc(NS(=O)(=O)Cc2ccccc2)c1F)c1c[nH]c2ncc(-c3cc4c(cc3Cl)OCCO4)cc12
6.00 to 7.00

###

target-under-test: MKK4 (Homo sapiens, UniProt P45985)
Construct: purchased ProQinase GmbH, Freiburg, Germany (33PanQinase Assay Service)
assay-notes: 33PanQinase enzyme assay, MKK4
Format: biochemical
condition-summary: single concentration 100 nM; read-out: Potency MKK4 (residual activity, assay at single concentration)
This section presents compounds with their documented remaining activity at 0.1 µM values.

Answered cases to consult:
>  <compound>
CCCS(=O)(=O)Nc1ccc(F)c(C(=O)c2c[nH]c3ncc(-c4ccccc4F)cc23)c1F [Example 34]

>  <result>
70 to 90%

$$$$
>  <compound>
O=C(c1c(F)ccc(NS(=O)(=O)Cc2ccccc2)c1F)c1c[nH]c2ncc(-c3ccc(OCC(O)CO)cc3)cc12 (stereo not shown) [Example 40]

>  <result>
70 to 90%

$$$$
>  <compound>
CCCS(=O)(=O)Nc1ccc(F)c(C(=O)c2c[nH]c3ncc(-c4ccc(S(N)(=O)=O)cc4)cc23)c1F [Example 96]

>  <result>
50 to 70%

$$$$
>  <compound>
O=C(c1c(F)ccc(NS(=O)(=O)Cc2ccccc2)c1F)c1c[nH]c2ncc(-c3ccc(OCC(O)CO)cc3Cl)cc12 (stereo not shown) [Example 41]

>  <result>
70 to 90%

$$$$
>  <compound>
CCCS(=O)(=O)Nc1ccc(F)c(C(=O)c2c[nH]c3ncc(-c4ccc5ccsc5c4)cc23)c1F [Example 51]

>  <result>
70 to 90%

$$$$
>  <compound>
CCCS(=O)(=O)Nc1ccc(F)c(C(=O)c2c[nH]c3ncc(-c4cccc(Cl)c4)cc23)c1F [Example 32]

>  <result>
70 to 90%

$$$$

Moving on to another compound below.
Record CCCS(=O)(=O)Nc1ccc(F)c(C(=O)c2c[nH]c3ncc(-c4ccc(F)cc4F)cc23)c1F [Example 33] : what is its remaining activity at 0.1 µM with MKK4 (Homo sapiens, UniProt P45985)?
70 to 90%

FYI, the data here is from patent US11912701B2.
